Experiment: Volume of distribution at steady state in Wistar rat plasma at 1 mg/kg, iv and 10 mg/kg, po
Assay type: ADME, organism-based
Conditions: read-out: Vdss
Numbered stars: 1 amine (or outer) side, 2 acyl side, 3 side chain; on linkers, the order of the positions; unused ones are H or OH. Bridge positions count the residues as written; N and C are the ends. Square brackets hold non-standard residues; d marks the D form. Peptide text beside a SMILES is read from it. N(2-Aminoethyl)Gly = O=C(CN(CCN[*:3])[*:1])[*:2]; Suc = O=C(CCC(=O)[*:2])[*:1]
Assay Endpoint: Vd (L/kg)
Numbers only, in L/kg.

Prompt line: Item under review: N=C(N)NCCC[C@@H]1NC(=O)[C@@H](Cc2ccccc2)NC(=O)[C@H](Cc2ccccc2)NC(=O)CCC(=O)NCCN(CC(N)=O)C(=O)[C@H](Cc2c[nH]c3ccccc23)NC1=O (F[dF]RW[N(2-Aminoethyl)Gly]-NH2; linker N-5 via Suc) . Reported Vd?
Response line: 2.1

###

Experiment: Half life in Wistar rat plasma at 1 mg/kg, iv and 10 mg/kg, po
Type: ADME, organism-based
Numbered stars: 1 amine (or outer) side, 2 acyl side, 3 side chain; on linkers, the order of the positions; unused ones are H or OH. Bridge positions count the residues as written; N and C are the ends. Square brackets hold non-standard residues; d marks the D form. Peptide text beside a SMILES is read from it. N(2-Aminoethyl)Gly = O=C(CN(CCN[*:3])[*:1])[*:2]; Suc = O=C(CCC(=O)[*:2])[*:1]
Assay Endpoint: half-life

Prompt line: Item under review: N=C(N)NCCC[C@@H]1NC(=O)[C@@H](Cc2ccccc2)NC(=O)[C@H](Cc2ccccc2)NC(=O)CCC(=O)NCCN(CC(N)=O)C(=O)[C@H](Cc2c[nH]c3ccccc23)NC1=O (F[dF]RW[N(2-Aminoethyl)Gly]-NH2; linker N-5 via Suc) . Reported half-life?
Response line: > 1.75 h

###

Target: UniProt Q01727
Sequence (Q01727 whole entry): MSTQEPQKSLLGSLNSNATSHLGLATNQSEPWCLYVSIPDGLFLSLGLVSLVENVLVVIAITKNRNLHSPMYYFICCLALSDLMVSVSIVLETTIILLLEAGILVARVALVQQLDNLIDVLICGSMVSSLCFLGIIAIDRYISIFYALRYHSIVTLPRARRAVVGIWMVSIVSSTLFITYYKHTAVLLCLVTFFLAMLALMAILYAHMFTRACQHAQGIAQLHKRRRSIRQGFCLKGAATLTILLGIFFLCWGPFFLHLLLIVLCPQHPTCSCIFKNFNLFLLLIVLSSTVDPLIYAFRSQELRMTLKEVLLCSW
Assay: Agonist activity at mouse MC1R expressed in HEK293 cells
Numbered stars: 1 amine (or outer) side, 2 acyl side, 3 side chain; on linkers, the order of the positions; unused ones are H or OH. Bridge positions count the residues as written; N and C are the ends. Square brackets hold non-standard residues; d marks the D form. Peptide text beside a SMILES is read from it. NGly(3-aminopropyl) = O=C(CN(CCCN[*:3])[*:1])[*:2]; N(2-Aminoethyl)Gly = O=C(CN(CCN[*:3])[*:1])[*:2]; Adipoyl = O=C(CCCCC(=O)[*:2])[*:1]; Suc = O=C(CCC(=O)[*:2])[*:1]
Assay Endpoint: EC50 (nM)
Answers are plain numbers, in nM.

Prompt line: Item under review: N=C(N)NCCC[C@@H]1NC(=O)[C@@H](Cc2ccccc2)NC(=O)[C@H](Cc2ccccc2)NC(=O)CCCC(=O)NCCN(CC(N)=O)C(=O)[C@H](Cc2c[nH]c3ccccc23)NC1=O . Reported EC50?
Response line: 120

Prompt line: # repeat for N=C(N)NCCC[C@@H]1NC(=O)[C@@H](Cc2ccccc2)NC(=O)[C@H](Cc2ccccc2)NC(=O)c2ccccc2C(=O)NCCN(CC(N)=O)C(=O)[C@H](Cc2c[nH]c3ccccc23)NC1=O
Response line: 550

Prompt line: # repeat for N=C(N)NCCC[C@@H]1NC(=O)[C@@H](Cc2ccccc2)NC(=O)[C@H](Cc2ccccc2)NC(=O)CCCCC(=O)NCCCN(CC(N)=O)C(=O)[C@H](Cc2c[nH]c3ccccc23)NC1=O (F[dF]RW[NGly(3-aminopropyl)]-NH2; linker N-5 via Adipoyl)
Response line: 240

Prompt line: # repeat for N=C(N)NCCC[C@@H]1NC(=O)[C@@H](Cc2ccccc2)NC(=O)[C@H](Cc2ccccc2)NC(=O)CCC(=O)NCCN(CC(N)=O)C(=O)[C@H](Cc2c[nH]c3ccccc23)NC1=O (F[dF]RW[N(2-Aminoethyl)Gly]-NH2; linker N-5 via Suc)
Response line: 64

Moving on to the next compound.
Prompt line: Item under review: N=C(N)NCCC[C@@H]1NC(=O)[C@@H](Cc2ccccc2)NC(=O)[C@H](Cc2ccccc2)NC(=O)CCC(=O)NCCCN(CC(N)=O)C(=O)[C@H](Cc2c[nH]c3ccccc23)NC1=O (F[dF]RW[NGly(3-aminopropyl)]-NH2; linker N-5 via Suc) . Reported EC50?
Response line: 28
